# systemName: C*02:02 (Homo sapiens, UniProt P10321, A176E/A235T/A330V/A97T/C350S/D114A/D33Y/G40S/L171W/L180W/L218V/M285V/M309V/M331V/N104K/P208H/Q277E/Q291P/R45H/S101N/S123Y/S297R/S48A/T187E/T329A/T363A/V319A)
# testMethodNotes: ELISA of small scale MHCI refold (anti-HLA W6/32 capture, anti-B2M detection)
# Format: binding
# cond: C*02:02, 1 μg/mL MHCI, normalized to no peptide control
Where no end group is shown, it is not given here.
experimentalReadout: normalized ELISA OD

                                    seqtext  experimentalreadout  result
0  FAAJAQKL (FAAXAQKL; not fully specified) [Peptide C0202-03-02]  normalized ELISA OD       6
1               FAAEAQKL [Peptide C0202-02]  normalized ELISA OD      ~8

----------
# systemName: C*02:02 (Homo sapiens, UniProt P10321, A176E/A235T/A330V/A97T/C350S/D114A/D33Y/G40S/L171W/L180W/L218V/M285V/M309V/M331V/N104K/P208H/Q277E/Q291P/R45H/S101N/S123Y/S297R/S48A/T187E/T329A/T363A/V319A)
# testMethodNotes: ELISA of small scale MHCI refold (anti-HLA W6/32 capture, anti-B2M detection)
# Type: binding
# cond: C*02:02, 1.0 μg/mL MHCI, no peptide control as background
Where no end group is shown, it is not given here. [ ]: non-standard residue; d: D form. code J = not defined here
experimentalReadout: S/N ELISA value

>>> df
                                    seqtext             result
0               FAAEAQKL [Peptide C0202-02]                 ~8
1  FAAJAQKL (FAAXAQKL; not fully specified) [Peptide C0202-03-02]                  6
2  FAAEAJKL (FAAEA[code J]KL; not fully specified; reading uncertain) [Peptide C0202-03-03]  highest S/N value
3   IAKSGTSEF (FAAEAQKL) [Peptide C0202-03]  highest S/N value
